- EXPERIMENT SUMMARY: AUC (0 to t) in healthy human (24 volunteers) at 400 mg, po test formulation of drug administered as single dose measured after 0.5 to 10 hrs
- Assay type: ADME, organism-based
- Parameters: time 0.5-10 hr, dose 400 mg, route oral
- MEASUREMENT SETUP: in vivo
REPORTED PROPERTY: AUC(0-t) (ng·h/mL)
Write down the numeric answer in ng·h/mL and omit the unit.

IN: Could you please provide reported AUC(0-t) for CC[C@H]1OC(=O)[C@H](C)[C@@H](O[C@H]2C[C@@](C)(OC)[C@@H](O)[C@H](C)O2)[C@H](C)[C@@H](O[C@@H]2O[C@H](C)C[C@H](N(C)C)[C@H]2O)[C@](C)(O)C[C@@H](C)C(=O)[C@H](C)[C@@H](O)[C@]1(C)O [ERYTHROMYCIN] ? Thanks!
OUT: 4020

* * *

- EXPERIMENT SUMMARY: Half life in healthy human (24 volunteers) at 500 mg, po test formulation of drug administered as single dose
- Assay type: ADME, organism-based
- MEASUREMENT SETUP: in vivo
REPORTED PROPERTY: half-life
I'd appreciate it if you included the unit after the number.

IN: Could you please provide reported half-life for CC[C@@H]1OC(=O)[C@H](C)[C@@H](O[C@@H]2C[C@](C)(OC)[C@H](O)[C@@H](C)O2)[C@@H](C)[C@@H](O[C@@H]2O[C@H](C)C[C@H](N(C)C)[C@H]2O)[C@](C)(O)C[C@@H](C)CN(C)[C@H](C)[C@@H](O)[C@]1(C)O ? Thanks!
OUT: 25 h

* * *

- EXPERIMENT SUMMARY: AUC (0 to t) in healthy human (24 volunteers) at 500 mg, po reference formulation of drug administered as single dose measured after 0.5 to 72 hrs
- Assay type: ADME, organism-based
- Set-up: time upper 72 hr, dose 500 mg, time lower 0.5 hr, route oral
- MEASUREMENT SETUP: in vivo
REPORTED PROPERTY: AUC(0-t) (ng·h/mL)
Write down the numeric answer in ng·h/mL and omit the unit.

IN: Could you please provide reported AUC(0-t) for CC[C@@H]1OC(=O)[C@H](C)[C@@H](O[C@@H]2C[C@](C)(OC)[C@H](O)[C@@H](C)O2)[C@@H](C)[C@@H](O[C@@H]2O[C@H](C)C[C@H](N(C)C)[C@H]2O)[C@](C)(O)C[C@@H](C)CN(C)[C@H](C)[C@@H](O)[C@]1(C)O ? Thanks!
OUT: 8050

* * *

- EXPERIMENT SUMMARY: Elimination rate constant from central compartment in healthy human (24 volunteers) at 500 mg, po reference formulation of drug administered as single dose by two-compartmental open model
- Type: ADME, organism-based
- MEASUREMENT SETUP: in vivo
REPORTED PROPERTY: k el
I'd appreciate it if you included the unit after the number.

IN: Could you please provide reported k el for CC[C@@H]1OC(=O)[C@H](C)[C@@H](O[C@@H]2C[C@](C)(OC)[C@H](O)[C@@H](C)O2)[C@@H](C)[C@@H](O[C@@H]2O[C@H](C)C[C@H](N(C)C)[C@H]2O)[C@](C)(O)C[C@@H](C)CN(C)[C@H](C)[C@@H](O)[C@]1(C)O ? Thanks!
OUT: 2.72e-05 s⁻¹

* * *

- EXPERIMENT SUMMARY: AUC (0 to t) in healthy human (24 volunteers) at 500 mg, po test formulation of drug administered as single dose measured after 0.5 to 72 hrs
- Assay type: ADME, organism-based
- Parameters: time upper 72 hr, time lower 0.5 hr, dose 500 mg, route oral
- MEASUREMENT SETUP: in vivo
REPORTED PROPERTY: AUC(0-t)

IN: Could you please provide reported AUC(0-t) for CC[C@@H]1OC(=O)[C@H](C)[C@@H](O[C@@H]2C[C@](C)(OC)[C@H](O)[C@@H](C)O2)[C@@H](C)[C@@H](O[C@@H]2O[C@H](C)C[C@H](N(C)C)[C@H]2O)[C@](C)(O)C[C@@H](C)CN(C)[C@H](C)[C@@H](O)[C@]1(C)O ? Thanks!
OUT: 7580 ng·h/mL

* * *

- EXPERIMENT SUMMARY: Cmax in healthy human (24 volunteers) at 400 mg, po reference formulation of drug administered as single dose measured after 0.5 to 10 hrs
- Assay type: ADME, organism-based
- Design: dose 400 mg, route oral
- MEASUREMENT SETUP: in vivo
REPORTED PROPERTY: Cmax
I'd appreciate it if you included the unit after the number.

IN: Could you please provide reported Cmax for CC[C@H]1OC(=O)[C@H](C)[C@@H](O[C@H]2C[C@@](C)(OC)[C@@H](O)[C@H](C)O2)[C@H](C)[C@@H](O[C@@H]2O[C@H](C)C[C@H](N(C)C)[C@H]2O)[C@](C)(O)C[C@@H](C)C(=O)[C@H](C)[C@@H](O)[C@]1(C)O ? Thanks!
OUT: 1120 ng/mL
